Target: T1, TNFR1 (Homo sapiens, UniProt P19438)
T1 chain: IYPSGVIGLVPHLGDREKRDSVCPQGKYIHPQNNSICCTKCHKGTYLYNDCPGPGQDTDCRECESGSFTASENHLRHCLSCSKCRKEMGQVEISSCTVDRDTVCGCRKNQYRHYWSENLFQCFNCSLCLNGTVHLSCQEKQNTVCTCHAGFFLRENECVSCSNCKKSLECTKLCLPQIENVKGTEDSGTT
Experiment: yeast display SC50
measurement.label: apparent Kd (screen) (nM)

- binder: "V55P (designed binder) MTLQELLREEALRRAEAEAFRYALELLAEKFPEQKEYLLDLAEEIESQIRSLSGPDVEDVRKFLDKEWAWVKELLAEHPAELAEVEAARAARLAELRAEVEAKVAA"
  measurement.label: "apparent Kd (screen)"
  observed.value: 0.653
- binder: "L26A (designed binder) MTLQELLREEALRRAEAEAFRYALEALAEKFPEQKEYLLDLAEEIESQIRSLSGVDVEDVRKFLDKEWAWVKELLAEHPAELAEVEAARAARLAELRAEVEAKVAA"
  measurement.label: "apparent Kd (screen)"
  observed.value: 0.718
- binder: "H78N (designed binder) MTLQELLREEALRRAEAEAFRYALELLAEKFPEQKEYLLDLAEEIESQIRSLSGVDVEDVRKFLDKEWAWVKELLAENPAELAEVEAARAARLAELRAEVEAKVAA"
  measurement.label: "apparent Kd (screen)"
  observed.value: 0.539
- binder: "L64I (designed binder) MTLQELLREEALRRAEAEAFRYALELLAEKFPEQKEYLLDLAEEIESQIRSLSGVDVEDVRKFIDKEWAWVKELLAEHPAELAEVEAARAARLAELRAEVEAKVAA"
  measurement.label: "apparent Kd (screen)"
  observed.value: 1.16
- binder: "V85R (designed binder) MTLQELLREEALRRAEAEAFRYALELLAEKFPEQKEYLLDLAEEIESQIRSLSGVDVEDVRKFLDKEWAWVKELLAEHPAELAEREAARAARLAELRAEVEAKVAA"
  measurement.label: "apparent Kd (screen)"
  observed.value: 13.8
- binder: "L82Y (designed binder) MTLQELLREEALRRAEAEAFRYALELLAEKFPEQKEYLLDLAEEIESQIRSLSGVDVEDVRKFLDKEWAWVKELLAEHPAEYAEVEAARAARLAELRAEVEAKVAA"
  measurement.label: "apparent Kd (screen)"
  observed.value: 0.718
- binder: "A83W (designed binder) MTLQELLREEALRRAEAEAFRYALELLAEKFPEQKEYLLDLAEEIESQIRSLSGVDVEDVRKFLDKEWAWVKELLAEHPAELWEVEAARAARLAELRAEVEAKVAA"
  measurement.label: "apparent Kd (screen)"
  observed.value: 0.49
- binder: "A11I (designed binder) MTLQELLREEILRRAEAEAFRYALELLAEKFPEQKEYLLDLAEEIESQIRSLSGVDVEDVRKFLDKEWAWVKELLAEHPAELAEVEAARAARLAELRAEVEAKVAA"
  measurement.label: "apparent Kd (screen)"
  observed.value: 0.368
